These data points were gathered from patent US8993585B2.

- Test system: Human primary T cells
- PROTOCOL: IL-2 ELISA, Human Primary T Cell, Anti-CD3+CD28+ (Example 3)
- Assay type: cell-based
- APPLIED CONDITIONS: Homo sapiens, T-cell, 24 h, anti-CD3+CD28 stimulation
OBSERVABLE: IC50 (nM)

Study these solved cases before continuing.
>>> df
                                   molecule  recorded_result
0  CN1C(C)(C)CC(Nc2nc(Nc3ccc(N4CCN(S(=O)(=O)C5CC5)CC4)c(C(F)(F)F)c3)ncc2F)CC1(C)C              377
1  CC1(C)CC(Nc2nc(Nc3ccc(-c4ccc(N5CCOCC5)nc4)c(C#N)c3)ncc2F)CC(C)(C)N1              770
2  CCN1CCN(c2ccc(Nc3ncc(F)c(NC4CC(C)(C)N(C)C(C)(C)C4)n3)cc2C(F)(F)F)CC1              117

I = CCN1C(=O)COc2cc(Nc3ncc(F)c(NC4CC(C)(C)N(C)C(C)(C)C4)n3)ccc21
II = CN1CCC(Nc2nc(Nc3cccc(C#N)c3)ncc2F)CC1
III = CN1CCN(c2ccc(Nc3ncc(F)c(NC4CC(C)(C)N(C)C(C)(C)C4)n3)cc2Cl)CC1
Arrange items by their IC50 values in increasing order. Rank the items, then write their labels in that order. III, I, II

1 = Cc1nnnn1-c1cccc(Nc2ncc(C#N)c(NC3CC(C)(C)NC(C)(C)C3)n2)c1
2 = CC1CN(c2cc(Nc3ncc(F)c(NC4CC(C)(C)N(C)C(C)(C)C4)n3)ccc2Cl)CC(C)N1C (centres unmarked)
Given the listed items, does 1 or 2 have the lesser reported IC50? Lab log: write the label of the selected item as the result. 1

###

- TESTED TARGET: PKC theta (Homo sapiens, UniProt Q04759)
- Sequence (Q04759 whole entry): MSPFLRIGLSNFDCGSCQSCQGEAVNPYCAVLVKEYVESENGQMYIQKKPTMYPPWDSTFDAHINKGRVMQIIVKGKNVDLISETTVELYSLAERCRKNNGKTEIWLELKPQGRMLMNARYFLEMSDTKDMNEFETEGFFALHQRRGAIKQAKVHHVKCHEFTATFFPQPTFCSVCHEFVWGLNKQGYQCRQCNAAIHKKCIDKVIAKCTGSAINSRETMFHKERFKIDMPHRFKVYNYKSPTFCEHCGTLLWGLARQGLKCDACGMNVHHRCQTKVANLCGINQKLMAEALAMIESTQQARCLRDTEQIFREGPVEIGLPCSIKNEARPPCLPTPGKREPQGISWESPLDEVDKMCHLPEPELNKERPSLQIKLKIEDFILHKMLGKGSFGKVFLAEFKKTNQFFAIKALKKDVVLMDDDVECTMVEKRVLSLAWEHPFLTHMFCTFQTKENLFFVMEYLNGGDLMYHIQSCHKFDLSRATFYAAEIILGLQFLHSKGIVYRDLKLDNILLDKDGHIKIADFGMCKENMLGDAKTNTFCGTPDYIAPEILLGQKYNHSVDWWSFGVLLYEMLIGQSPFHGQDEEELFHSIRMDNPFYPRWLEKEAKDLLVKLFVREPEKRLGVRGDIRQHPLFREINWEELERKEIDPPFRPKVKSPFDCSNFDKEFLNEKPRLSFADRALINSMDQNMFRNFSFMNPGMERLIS
pIC50: −log10 of the molar value.
OBSERVABLE: pIC50

Use the examples below as a reference point.
>>> df
                                   compound                             tested_target  recorded_result
0  CCOc1ccc(Nc2ncc(F)c(NC3CC(C)(C)NC(C)(C)C3)n2)cc1-n1nnnc1CC [Compound I-415]  PKC theta (Homo sapiens, UniProt Q04759)             9.30
1  COc1ccc(Nc2ncc(F)c(NC3CC(C)(C)N(C)C(C)(C)C3)n2)cc1OC(F)F [Compound I-239]  PKC theta (Homo sapiens, UniProt Q04759)             8.69
2  CN1CCN(c2ccc(Nc3ncc(C(F)(F)F)c(NC4CC(C)(C)N(C)C(C)(C)C4)n3)cc2C(F)(F)F)CC1 [Compound I-38]  PKC theta (Homo sapiens, UniProt Q04759)             7.80
3  CN1C(C)(C)CC(Nc2nc(Nc3ccc(F)c(C#N)c3)ncc2Cl)CC1(C)C [Compound I-166]  PKC theta (Homo sapiens, UniProt Q04759)             8.37
4  CN1CCN(c2ncc(Nc3ncc(F)c(NC4CC(C)(C)N(C)C(C)(C)C4)n3)cc2C(F)(F)F)CC1 [Compound I-273]  PKC theta (Homo sapiens, UniProt Q04759)             8.48

A = Cc1cc(C)cc(Nc2ncc(F)c(NC3CC(C)(C)N(C)C(C)(C)C3)n2)c1 [Compound I-12]
B = CN1C(C)(C)CC(Nc2nc(Nc3ccc(N4CCN(S(C)(=O)=O)CC4)c(C(F)(F)F)c3)ncc2C#N)CC1(C)C [Compound I-95]
Rank A against B by their pIC50 values and give the higher one. Record your answer as the label of the chosen record. A
(A: 7.66, B: 7.37)
